Catalogue of molecules with associated T/C
- Test system: L1210 leukemia ip in BDF1 mice, survival T/C
- methodNotes: NCI In Vivo Anticancer Drug Screen. Data for tumor model L1210 Leukemia (intraperitoneal) in B6D2F1 (BDF1) mice
- measurementConditions: endpoint: mean survival time; dose: 200.0 mg/kg/injection; schedule: Q04DX003 (ip); vehicle: saline with Tween-80; higher = longer survival
- Procedure: The antitumor activity of compounds was measured in mice bearing transplantable tumors. Survival or tumor size were measured and the results are expressed as the measurement made in the treated group (T) divided by the measurement made in the vehicle treated control group (C). The tumor model used in this assay is L1210 Leukemia (intraperitoneal) in B6D2F1 (BDF1) mice
Toxic doses and inconclusive results are not listed.

# count of solved cases: 3
molecule	T/C
OC1(CBr)CCCCC1	98 % of control
O=C(Nc1ccc(F)cc1)c1ccc(C(=O)Nc2ccc(F)cc2)cc1	96 % of control
Cc1ccc(SCCn2cnc3c(ncn3Cc3ccccc3)c2=S)cc1	109 % of control

T/C of COC(CCC#N)c1ccccc1 (stereo not given) , assay on L1210 leukemia ip in BDF1 mice, survival T/C, is 97 % of control

T/C of CC1CCC=C2C(=O)C3OC(C)(C)C(C3O)C21C (stereo not given) , assay on L1210 leukemia ip in BDF1 mice, survival T/C, is 103 % of control

T/C of CC(=O)CC(=O)NC1CCCCC1 , assay on L1210 leukemia ip in BDF1 mice, survival T/C, is 94 % of control

T/C of CCCCCOC(=O)CN(CC(=O)OCCCCC)c1ccccc1 , assay on L1210 leukemia ip in BDF1 mice, survival T/C, is 98 % of control

T/C of NC(=O)/C(=C\c1ccncc1)c1cccc2ccccc12 , assay on L1210 leukemia ip in BDF1 mice, survival T/C, is 88 % of control

T/C of COc1cc(C(=O)N(C)C2CCCCC2)cc(OC)c1OC , assay on L1210 leukemia ip in BDF1 mice, survival T/C, is 98 % of control

T/C of COc1ccc(N2CCN(/C=C/C(=O)c3ccc(C)cc3C)CC2)cc1 , assay on L1210 leukemia ip in BDF1 mice, survival T/C, is 95 % of control
